system: PC-3 prostate; experiment: NCI-60 one-dose screen, 48 h; conditions: 10 µM unless noted
The panel holds about 83,000 compounds, 20% with a hit somewhere; the sample as a whole holds those more often. Active and inactive are the calls of the source. The calls were made as follows: active = growth percent below 10; inactive = the rest.
Outcome field: choose from True = active, False = inactive

Below, 5 compounds whose answers are already recorded.
- COMPOUND: "Cc1cc(CCl)c(C)cc1CCl"
  TGT: "PC-3 prostate"
  GROUP LABEL: "False"
- COMPOUND: "CNC(=O)Oc1ccccc1-c1ccccc1"
  TGT: "PC-3 prostate"
  GROUP LABEL: "False"
- COMPOUND: "C[C@]12CC[C@@H]3C4=C(CC[C@H]3[C@@H]1CC[C@@H]2O)CC(=O)CC4"
  TGT: "PC-3 prostate"
  GROUP LABEL: "False"
- COMPOUND: "CC(C)(C)NCC(O)c1ccccc1Cl (configuration not stated)"
  TGT: "PC-3 prostate"
  GROUP LABEL: "False"
- COMPOUND: "C=CCN1C(=O)C(CC)(CCC(C)C)C(=O)NC1=S (configuration not stated)"
  TGT: "PC-3 prostate"
  GROUP LABEL: "False"

Lookup: GET /call?item= O=c1cc[nH]c(=O)o1 returns the recorded outcome of this test.
Found: False

Lookup: GET /call?item= O=C(CC1(O)C(=O)Nc2ccc(F)cc21)c1ccc(C(=O)NCC2CCC3(CC2)OOC2(CCCCC2)OO3)cc1 (configuration not stated) returns the recorded outcome of this test.
Found: False

Lookup: GET /call?item= CC(C)[C@]12O[C@H]1[C@@H]1O[C@]13[C@]1(O[C@H]1C[C@H]1C4=C(CC[C@@]13C)C(=O)OC4)[C@@H]2OC(=O)OC(C)(C)C returns the recorded outcome of this test.
Found: False

Lookup: GET /call?item= Cc1ccc(N)cc1[As]=[As]c1cc(N)ccc1C (configuration not stated) returns the recorded outcome of this test.
Found: True

Lookup: GET /call?item= C[CH2][Pb]([CH2]C)([CH2]C)[O]C(=O)c1ccc(N)cc1 returns the recorded outcome of this test.
Found: False

Lookup: GET /call?item= Oc1ccc(Br)cc1CN1CCN(Cc2ccc(Cl)cc2)CC1 returns the recorded outcome of this test.
Found: False

Lookup: GET /call?item= C[C@]12CC[C@H]3[C@@H](C[C@@H]4N=C(c5ccc(O)cc5)S[C@@]45C[C@H](O)CC[C@]35C)[C@@H]1CC[C@@H]2O returns the recorded outcome of this test.
Found: False

Lookup: GET /call?item= COc1cc(C2(C#N)CCN(C)CC2)cc(OC)c1OC returns the recorded outcome of this test.
Found: False

Lookup: GET /call?item= CO[C@@H](c1ccccc1Cl)[C@H](C)OC(N)=O returns the recorded outcome of this test.
Found: False

Lookup: GET /call?item= Clc1ccc(SSC(Cl)(Cl)Cl)cc1 returns the recorded outcome of this test.
Found: False

Lookup: GET /call?item= CC1(C)N=C(N)N=C(N)N1c1ccc(OCCCCOc2ccc(S(=O)(=O)F)cc2)c(Cl)c1 returns the recorded outcome of this test.
Found: True

Lookup: GET /call?item= CCCCCCCCCCCCOc1ccc(C(=O)Oc2ccc(CSP3(=O)OCC4OC(n5cnc6c(N)ncnc65)C(F)C4OP(=O)(O)OCC4OC(n5ccc(=O)[nH]c5=O)C(F)C4O3)cc2)cc1 (configuration not stated) returns the recorded outcome of this test.
Found: False

Lookup: GET /call?item= FC(F)=C(F)c1ccccc1 returns the recorded outcome of this test.
Found: False

Lookup: GET /call?item= CC(C)(C)N(Cc1ccccc1)N=O returns the recorded outcome of this test.
Found: False

Lookup: GET /call?item= CNC(=O)O/N=C(/C)c1ccc(Cl)cc1 returns the recorded outcome of this test.
Found: False

Lookup: GET /call?item= OC1CCCCC1N1CCC(c2ccccc2)CC1 (configuration not stated) returns the recorded outcome of this test.
Found: False

Lookup: GET /call?item= Cc1cc(NC(=O)/C=C/c2ccc([N+](=O)[O-])cc2)ccc1S(=O)(=O)F returns the recorded outcome of this test.
Found: False

Reference source: PubChem BioAssay (NCI)
